Values from PubChem BioAssay (NCI)

- System: HCT-116 colon
- Measurement Description: NCI-60 one-dose screen, 48 h (100 = growth as untreated, 0 = no growth, -100 = all killed)
- Measurement Conditions: 10 µM unless noted
This is part of a sample that, as a whole, favours compounds with a hit. Of some 83,000 tested, about 20% had one in any assay.
Give measured growth for each item. Keep answers brief.
Numbers only, in %.

Please look at the items below and tell me growth for each one, in order.
1. COc1ccccc1NC(=O)Cn1cc(CN2CCN(c3ccnc4cc(Cl)ccc34)CC2)nn1
2. Cn1cc(-c2nonc2-c2c[nH]c3ccc(Br)cc23)c2cc(Br)ccc21
3. Cn1ccnc1C(=O)C(=O)Nc1ccc(CC(=O)Nc2ccccc2)cc1
4. COc1ccc2[nH]cc(-c3nc(-c4c[nH]c5ccncc45)cs3)c2c1

Return:
1. 98.3
2. 22.7
3. 114
4. -62
